experiment: CREB reporter modulators under forskolin, primary screen, cell-based, PC12, CRE-LacZ reporter, forskolin-stimulated (AID 1146); conditions: luminescence, 4.5 h, higher = more signal, called active from +8 up or from −8 down;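 note: PC12 cells with 6xCRE LacZ reporter stimulated by forskolin 10 µM; beta-galactosidase reporter signal reflecting CREB driven transcription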
MEASURED QUANTITY: z-score
In your answer, state the number alone without any accompanying words.

Q. Name the recorded z-score of the item "CC(CCN1CCc2nc(-c3ccccc3)c(-c3ccccc3)cc2C1)=NO[C@@H](C)c1cc(-c2c(C)cc(C)cc2C)no1" in your answer.
A. -0.426

Q. Retrieve z-score measured for "CC[C@@H](c1ccccc1)n1c(=O)n2n(c1=O)[C@H]1[C@H](O)[C@@H]3O[C@@H]3C(=NOCc3ccccc3)[C@H]1CC2" and print it.
A. 0.706

Q. Look up and state reported z-score for "Cc1ccc2[nH]c3nc(CCCn4ccnc4-c4ccccc4)nnc3c2c1"
A. -0.815

Q. Fill in z-score for record "O=C1C2=CC[C@H]3C(=O)N(Cc4ccccc4)C(=O)[C@H]3[C@H]2[C@H](O)[C@@H]2O[C@H]12"
A. 25
